Tested on: NCI-H460 lung
Assay: NCI-60 one-dose screen, 48 h
Settings: 10 µM
Procedure: Growth inhibition of the NCI-H460 human Non-Small Cell Lung tumor cell line is measured as a screen for anti-cancer activity. Cells are grown in 96 well plates and exposed to the test compound for 48 hours. Compounds are tested at a single concentration, which is 10^-5 M for most compounds. The reported endpoint is percent growth (GI% or GIPRCNT), where numbers from 0 - 100% represent growth inhibition, and numbers from -100% - 0 represent cell death. […]
This is part of a sample that, as a whole, favours compounds with a hit. Of some 83,000 tested, about 20% had one in any assay. Active and inactive are the calls of the source. Rule for the calls: active = growth percent below 10; inactive = the rest.
Valid outcomes are listed here; reply with one: active, inactive

[[record]]
compound = "O=C1CC[C@@H]2CCCC[C@@H]2C1"
answer_label = "inactive"

[[record]]
compound = "Nc1ncn(C2OC(CO)C(O)C2O)c(=O)n1 (stereo unspecified)"
answer_label = "active"

[[record]]
compound = "O=C1/C(=C/c2ccc(Cl)cc2)SC(=Nc2ccc(Cl)cc2)N1Cc1nc2ccccc2[nH]1"
answer_label = "inactive"

[[record]]
compound = "COc1cc2nc(Nc3cccc(NC(C)=O)c3)nc(N)c2cc1OC"
answer_label = "inactive"

[[record]]
compound = "CC(=O)CSC(C)=O"
answer_label = "inactive"

[[record]]
compound = "COc1cc(C)ccc1C(=O)c1ccc(C)cc1OC"
answer_label = "active"


Req: Which result was noted for this compound in the test: `Clc1ccc(Sc2nc(NC3CC3)nc(Sc3ccc(Cl)cc3)n2)cc1`
Resp: inactive

---

system: SK-OV-3 ovarian; assay: NCI-60 one-dose screen, 48 h (100 = growth as untreated, 0 = no growth, -100 = all killed); conditions: 10 µM
Compounds without any hit were thinned out: in the full panel of roughly 83,000, 20% have a hit.
growth below 90% gives not met; growth at or above it gives met.

A selection of reference data follows.
[[record]]
smiles_notation = "CC1=C(N2CCOCC2)C(N2CCOCC2)=C(C)C(=O)C1=O"
answer_label = "met"

[[record]]
smiles_notation = "CSc1cc(SC)ncn1"
answer_label = "met"

[[record]]
smiles_notation = "CN1CC[C@@H](c2c(O)cc(O)c3c(=O)cc(-c4ccccc4Cl)oc23)[C@@H](O)C1"
answer_label = "not met"


Then this molecule:
Req: For this molecule, is measured growth 90% or higher? `Cc1nc2ccc(CN(C)c3ccc(C(=O)N[C@@H](CCC(=O)O)C(=O)O)s3)cc2c(=O)[nH]1`
Resp: not met

---

Each item that follows carries a reported growth.
test system: U251 CNS; test: NCI-60 one-dose screen, 48 h (100 = growth as untreated, 0 = no growth, -100 = all killed); details: 10 µM
Compounds without any hit were thinned out: in the full panel of roughly 83,000, 20% have a hit.
Just the number in %, nothing appended.

These solved cases illustrate the format of a correct answer.
[[record]]
compound = "Nc1ncn(C2OC(CO)C(O)C2O)c(=O)n1 (stereo unspecified)"
result_units = "%"
observed_measurement = 5.19

[[record]]
compound = "CCN(CC)CCCC(C)Nc1ccc2ccc(Cl)cc2n1 (stereo unspecified)"
result_units = "%"
observed_measurement = 92.7

[[record]]
compound = "Oc1[nH]c2ccc(Cl)cc2c1/C=c1/ccc2c(c1)N=C(c1cc(F)cc(F)c1)N=2"
result_units = "%"
observed_measurement = 73.9

[[record]]
compound = "CC[C@H]1CCC/C=C/[C@@H]2C[C@H](O)C[C@H]2[C@H](O)/C=C/C(=O)O1"
result_units = "%"
observed_measurement = 15.7

[[record]]
compound = "c1ccc(CO[C@H]2CO[C@H]3[C@@H]2OC[C@H]3OCc2ccccc2)cc1"
result_units = "%"
observed_measurement = 104

[[record]]
compound = "Cc1cc(Cc2cc(C)c(O)c(C)c2)cc(C)c1O"
result_units = "%"
observed_measurement = 49.6

[[record]]
compound = "CCN(CC)CCNC(=O)c1ccc(NC(C)=O)cc1"
result_units = "%"
observed_measurement = 93.9

[[record]]
compound = "CCCCCCCCCCCC[n+]1ccc(C(N)=O)cc1"
result_units = "%"
observed_measurement = -3.1

[[record]]
compound = "COc1ccc2c(c1)O/C(=C\\c1ncc([N+](=O)[O-])n1C)C2=O"
result_units = "%"
observed_measurement = -12.6

[[record]]
compound = "O=C1OCC2=C1C(c1cccc(Cl)c1)c1cc3c(cc1N2CCO)CCC3 (stereo unspecified)"
result_units = "%"
observed_measurement = 3.51


Query compound follows.
Req: Consider the compound `COc1cc(Nc2ncnc(Nc3ccc4c(n3)NC(=O)C(C)(C)O4)n2)cc(OC)c1OC` and give its measured growth.
Resp: 15.9

---

Test system: SF-539 CNS
Assay: NCI-60 one-dose screen, 48 h (100 = growth as untreated, 0 = no growth, -100 = all killed)
Settings: 10 µM
Description: Cells are grown in 96 well plates and exposed to the test compound for 48 hours. Compounds are tested at a single concentration, which is 10^-5 M for most compounds. The reported endpoint is percent growth (GI% or GIPRCNT), where numbers from 0 - 100% represent growth inhibition, and numbers from -100% - 0 represent cell death. For example, a value of 40 represents 60% growth inhibition. A value of 0 means no net growth occurred over the course of the experiment. […]
The panel holds about 83,000 compounds, 20% with a hit somewhere; the sample as a whole holds those more often.
growth of 40% or higher: MET. Under 40%: NOT MET.

Worked examples follow.
[[record]]
molecule = "CCCCCCCCCCCCCCCCN(C(C)c1ccccc1)S(=O)(=O)c1ccc(OC)c(N)c1 (centres undefined)"
answer_label = "MET"

[[record]]
molecule = "Cc1cs/c(=N\\NC(=O)c2cc(-c3cc4ccccc4o3)nn2-c2ccccc2)n1-c1ccccc1"
answer_label = "MET"

[[record]]
molecule = "CCCCCCCCCCCCCCCCCCOCC(COCCOCC[N+]1(CCCCCC(=O)[O-])CCCC1)Oc1ncccn1 (centres undefined)"
answer_label = "NOT MET"


Req: Does `COc1ccc(Nc2nc3ccc(NC(=O)NC4CCCCC4)cc3[nH]c2=O)cc1` have a reported growth of at least 40%?
Resp: MET

Req: Is growth at least 40%? Consider `COc1ccc(/C(=C2/O[C@@H]([C@H]3COC(C)(C)O3)[C@H]3OC(C)(C)O[C@@H]23)c2cc(OC)c(OC)c(OC)c2)cc1O`
Resp: NOT MET

Req: Please indicate if the recorded growth for `NC(=O)CC1(c2ccccc2)CCCCC1` meets or exceeds 40%.
Resp: MET

Req: Could you verify whether the entry CCOC1(OCC)OC(c2ccccc2)=C(C#N)C(/C=C\c2ccccc2)C1(OCC)OCC (centres undefined) shows growth of no less than 40%?
Resp: MET

Req: Kindly determine if growth recorded for `COc1cc2cc3c(nc2cc1OC)CCN3Cc1ccc(NC(=O)Nc2ccc(F)cc2F)cc1` is above or exactly 40%.
Resp: MET

Req: Quick check: does `COc1ccc(Cl)cc1-n1nnc(-c2nc3ccccc3[nH]2)c1N` have growth greater than or equal to 40%?
Resp: MET

Req: Is it the case that OCC1OC(n2cnc3c(N/N=C\c4ccccn4)ncnc32)C(O)C1O (centres undefined) has growth reaching or exceeding 40%?
Resp: NOT MET

---

tested on: CAKI-1 renal; experiment: NCI-60 one-dose screen, 48 h; settings: 10 µM
About 83,000 compounds went through this panel and 20% of them were active in at least one assay; those are over-represented in the sample as a whole. Active and inactive are the calls of the source. The calls were made as follows: active = growth percent below 10; inactive = the rest.
Lab note: assign the record to one of 1 (yes) (active), 0 (no) (inactive)

Req: Given `COc1cc(-c2nc(-c3nnc(-c4ccccc4Cl)o3)c3ccccn23)cc(OC)c1OC` , state the outcome it received in this test.
Resp: 0 (no)

---

test system: SNB-75 CNS; experiment: NCI-60 one-dose screen, 48 h; settings: 10 µM
The panel holds about 83,000 compounds, 20% with a hit somewhere; the sample as a whole holds those more often. Activity calls are given as the source filed them. Rule for the calls: active = growth percent below 10; inactive = the rest.
A correct response names exactly one class from class 1 (active), class 0 (inactive)

[[record]]
compound = "CN(C)C(=S)N/N=C\\C=N/NC(=S)N(C)C"
answer_label = "class 0"

[[record]]
compound = "CC(=O)N1C/C(=C/c2ccc(Cl)cc2)C(=O)/C(=C/c2ccc(Cl)cc2)C1"
answer_label = "class 0"


Req: Can you look up the reported call for Clc1ccc(/C=C2\CCCC3=C2N=C2SC=NN2C3c2ccc(Cl)cc2)cc1 (stereo not drawn) for me?
Resp: class 0

Req: Returns: the outcome recorded for CCCC1(CC(=O)O)OCCc2c1[nH]c1ccccc21 (stereo not drawn) in this assay.
Resp: class 0

Req: Hi team, can someone confirm the assay call for `COc1ccc2c(c1)sc1nc(-c3ccccc3)c(-c3ccsc3)n12` ?
Resp: class 1

Req: Record lookup: outcome of this test for `O=S(=O)(NCCCNc1nccc(-c2c(-c3ccc(F)cc3)nc3sccn23)n1)c1ccc(F)cc1` ?
Resp: class 0

Req: Give the logged outcome of this assay for the following compound: `CCCCCCCCCCCC[n+]1ccc(C(N)=O)cc1`
Resp: class 1

Req: How did this test come out for `C=C(Cl)[C@@](Cl)(CBr)CC[C@@H](Br)C(C)(C)Cl` ?
Resp: class 1

Req: Per the assay record, what outcome was assigned to `Nc1cc2c(cc1Cl)-c1ccc([N+](=O)[O-])cc1/C2=N\O` ?
Resp: class 0

Just for reference, PubChem BioAssay (NCI) is where these values come from.
